Biological target: MMP-9 (Homo sapiens)
Sequence (P14780 94-707): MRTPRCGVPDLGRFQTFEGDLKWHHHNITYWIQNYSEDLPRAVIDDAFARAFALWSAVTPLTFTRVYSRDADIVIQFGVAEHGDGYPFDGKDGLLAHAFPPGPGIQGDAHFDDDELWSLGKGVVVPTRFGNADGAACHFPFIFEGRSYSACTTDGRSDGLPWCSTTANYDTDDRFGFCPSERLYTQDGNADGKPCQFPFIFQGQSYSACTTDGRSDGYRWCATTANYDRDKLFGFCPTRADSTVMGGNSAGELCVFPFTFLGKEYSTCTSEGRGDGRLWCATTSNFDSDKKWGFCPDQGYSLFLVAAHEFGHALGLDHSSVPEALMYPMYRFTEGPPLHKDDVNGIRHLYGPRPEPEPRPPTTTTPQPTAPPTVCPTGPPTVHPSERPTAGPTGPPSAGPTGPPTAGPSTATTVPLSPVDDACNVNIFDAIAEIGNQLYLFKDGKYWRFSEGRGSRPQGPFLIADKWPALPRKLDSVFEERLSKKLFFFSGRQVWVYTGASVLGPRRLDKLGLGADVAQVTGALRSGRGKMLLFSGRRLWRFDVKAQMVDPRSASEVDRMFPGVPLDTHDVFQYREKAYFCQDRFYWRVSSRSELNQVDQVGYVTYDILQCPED
Assay: MMP-9 inhibition (thiopeptide or fluorescent peptide substrate assay)
Assay type: biochemical
Settings: read-out: MMP-9 IC50
pIC50: −log10 of the molar value. Counter-ions that a name gives are not always drawn.
endpoint name: pIC50

Record excerpt, results attached:
[
  {
    "compound": "COc1ccc(S(=O)(=O)N(Cc2cccnc2)c2c(C)ccc(C)c2C(=O)NO)cc1",
    "assay result": 8.05
  },
  {
    "compound": "COc1ccc(S(=O)(=O)N(Cc2cccnc2)c2c(C)cc(-c3ccc(OC(F)(F)F)cc3)cc2C(=O)NO)cc1 [Example 404, hydrochloride salt]",
    "assay result": 8.23
  }
]

1: COc1ccc(S(=O)(=O)N(Cc2ccc(C(=O)NCCN3CCCCC3)cc2)c2c(C)cccc2C(=O)NO)cc1
2: COc1ccc(S(=O)(=O)N(Cc2ccccc2)c2c(OCc3ccc(C(=O)NO)cc3)cccc2C(=O)NO)cc1
Look at 1 and 2 . Which one has the lower recorded pIC50 number? To answer, give the label that identifies your chosen option. 2
(2: 7.92, 1: 8.20)

* * *

Target: TACE (Homo sapiens, UniProt P78536)
Sequence (P78536 215-824): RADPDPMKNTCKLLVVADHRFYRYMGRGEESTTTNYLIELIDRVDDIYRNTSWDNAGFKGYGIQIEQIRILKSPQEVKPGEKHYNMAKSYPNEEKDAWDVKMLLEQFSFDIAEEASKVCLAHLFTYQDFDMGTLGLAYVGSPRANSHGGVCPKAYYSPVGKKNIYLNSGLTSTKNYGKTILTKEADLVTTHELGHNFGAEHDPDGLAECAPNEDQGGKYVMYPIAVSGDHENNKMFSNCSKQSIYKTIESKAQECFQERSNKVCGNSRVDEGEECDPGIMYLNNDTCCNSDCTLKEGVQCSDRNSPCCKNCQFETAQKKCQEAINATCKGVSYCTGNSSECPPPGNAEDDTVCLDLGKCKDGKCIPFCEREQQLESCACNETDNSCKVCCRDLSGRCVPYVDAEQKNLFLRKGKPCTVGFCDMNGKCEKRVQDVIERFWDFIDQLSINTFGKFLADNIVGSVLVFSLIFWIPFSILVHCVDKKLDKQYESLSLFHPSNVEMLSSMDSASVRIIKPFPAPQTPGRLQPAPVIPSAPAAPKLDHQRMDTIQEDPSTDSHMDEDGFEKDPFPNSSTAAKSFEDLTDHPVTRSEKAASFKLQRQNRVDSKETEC
Experiment: TACE inhibition (fluorescent peptidyl substrate)
Type: biochemical
Settings: read-out: TACE IC50
pIC50: −log10 of the molar value.
endpoint name: pIC50

Record excerpt, results attached:
[
  {
    "compound": "COc1ccc(S(=O)(=O)N(Cc2cccnc2)c2c(C)cc(-c3cc(-c4ccc(C)o4)no3)cc2C(=O)NO)cc1 [Example 301]",
    "pIC50": 5.83
  },
  {
    "compound": "COc1ccc(S(=O)(=O)N(Cc2cccc(Br)c2)c2c(C)cc(C)cc2C(=O)NO)cc1 [Example 119]",
    "pIC50": 6.60
  },
  {
    "compound": "COc1ccc(S(=O)(=O)N(Cc2ccccc2)c2c(C(=O)NO)cccc2C(F)(F)F)cc1 [Example 125]",
    "pIC50": 6.52
  }
]

1: COc1ccc(S(=O)(=O)N(Cc2ccccc2)c2c(OCc3ccc(C(=O)NO)cc3)cccc2C(=O)NO)cc1 [Example 57]
2: COc1ccc(S(=O)(=O)N(Cc2ccccc2)c2c(C(=O)NO)ccc(Cl)c2C)cc1 [Example 102]
Look at 1 and 2 . Which one has the lower recorded pIC50 number? To answer, give the label that identifies your chosen option. 1
(1: 6.00, 2: 6.79)

* * *

Target: MMP-13 (Homo sapiens, UniProt P45452)
Experiment: MMP-13 inhibition (thiopeptide or fluorescent peptide substrate assay)
Format: biochemical
endpoint name: IC50 (nM)

[
  {
    "compound": "COc1ccc(S(=O)(=O)N(C)c2c(CN3CCOCC3)cccc2C(=O)NO)cc1 [Example 309]",
    "display unit": "nM",
    "IC50": 14
  },
  {
    "compound": "Cc1cccc(C(=O)NO)c1N(Cc1cccnc1)S(=O)(=O)c1ccc(-c2ccc3c(c2)OCO3)cc1 [Example 415]",
    "display unit": "nM",
    "IC50": 26
  },
  {
    "compound": "COc1ccc(S(=O)(=O)N(Cc2ccc(N3CCN(C)CC3)cc2)c2c(C)cccc2C(=O)NO)cc1 [Example 382]",
    "display unit": "nM",
    "IC50": 20
  }
]

1: COc1ccc(S(=O)(=O)N(Cc2ccccc2)c2c(OCC(=O)NO)cccc2C(=O)NO)cc1 [Example 54]
2: COc1ccc(S(=O)(=O)N(C)c2c(Cn3ccnc3)cccc2C(=O)NO)cc1 [Example 311]
Response body: label of entry with the larger IC50; valid values 1 , 2 . To answer, give the label that identifies your chosen option. 2
